Assay: A CellTox Green Cytotoxicity Assay to monitor cytotoxicity in HepG2 cells - 24 hour (AID 1224878); also: nearly all actives have a fitted effect of over 45% in size
Settings: CellTox Green fluorescence; series mostly up to 76.8 µM
Results filed as inconclusive are left out. Activity calls are given as the source filed them. Calls follow the shape of the dose curve; as a rule, active = well fitted activation curve with a large enough effect in the repeat runs; inconclusive = weak or mixed curves; inactive = flat fitted curve, though single readings scatter.
Labels: active, inactive

| compound | qualitative-label |
| --- | --- |
| C1CCC(C(CC2CCCCN2)C2CCCCC2)CC1 (stereo unspecified) | active |
| NC1CCCCC1 | inactive |
| Nc1c2c(nc3ccccc13)CCCC2 | inactive |
| CCCCOC(=O)c1ccc(O)cc1 | inactive |
| Cc1ncc([N+](=O)[O-])n1C | inactive |
| Cc1cc(=O)oc2cc(O)ccc12 | inactive |
| Cc1ncc([N+](=O)[O-])n1CCO | inactive |
| CCc1nc(N)nc(N)c1-c1ccc(Cl)cc1 | inactive |
| CN1CCc2cccc3c2[C@H]1Cc1ccc(O)c(O)c1-3 | inactive |
| CCN(Cc1c(F)cccc1Cl)c1c([N+](=O)[O-])cc(C(F)(F)F)cc1[N+](=O)[O-] | inactive |
| Cc1ccc(S(=O)(=O)O)cc1 | inactive |
| CN(C)CCOC(c1ccccc1)c1ccccc1 | inactive |
| C1=CC2C3C=CC(C3)C2C1 (stereo unspecified) | inactive |
| CC/C(=C(\c1ccccc1)c1ccc(OCCN(C)C)cc1)c1ccccc1 | active |
| CCCCC1(COC(=O)CCC(=O)O)C(=O)N(c2ccccc2)N(c2ccccc2)C1=O | inactive |
| OC[C@H]1O[C@H](O[C@]2(CCl)O[C@H](CCl)[C@@H](O)[C@@H]2O)[C@H](O)[C@@H](O)[C@H]1Cl | inactive |
| CCOc1ccc(NC(C)=O)cc1 | inactive |
| O=c1[nH]cc(F)c(=O)[nH]1 | inactive |
| Cc1c(C(=O)O)c(O)cc2c1C(=O)c1c(O)c([C@@H]3O[C@H](CO)[C@@H](O)[C@H](O)[C@H]3O)c(O)c(O)c1C2=O | inactive |
| CN(C)C(=O)Nc1ccc(Cl)c(Cl)c1 | inactive |
| CS(=O)(=O)OCCCCOS(C)(=O)=O | inactive |
| CCCC[P+](CCCC)(CCCC)CCCC | inactive |
| F[B-](F)(F)F | inactive |
| CN(N=O)C(=O)N[C@@H]1[C@@H](O)[C@H](O)[C@@H](CO)O[C@@H]1O | inactive |
| NS(=O)(=O)O | inactive |
| NS(=O)(=O)c1cc2c(cc1Cl)NCNS2(=O)=O | inactive |
